- Tested on: OVCAR-8
- method-notes: NCI tumour cell line growth inhibition, 48 h
Activity calls are given as the source filed them. No stated cut-off is given here; in the data, active = GI50 up to about 1.1 µM and inactive = higher.
Outcome codes: T for active, F for inactive

[
  {
    "compound": "COc1cccc2c1C1(O)C2CCCC12OCCCO2 (stereo unspecified)",
    "assigned-label": "F"
  },
  {
    "compound": "O=S(=O)(Nc1ccccc1S(=O)(=O)c1ccccc1)c1ccccc1",
    "assigned-label": "F"
  },
  {
    "compound": "CCCCCCCCCCCC(=O)N(CCCCCCCCCCC(=O)O)CC(O)C(O)C(OC1OC(CO)C(O)C(O)C1O)C(O)CO (stereo unspecified)",
    "assigned-label": "F"
  },
  {
    "compound": "FC(F)(F)c1nc2cc(SSc3cc4nc(C(F)(F)F)[nH]c4cc3Cl)c(Cl)cc2[nH]1",
    "assigned-label": "F"
  },
  {
    "compound": "CNC(=S)N/N=C(\\C)c1cc(OC)c(OC)cc1O",
    "assigned-label": "F"
  },
  {
    "compound": "CC(C)OC(=O)Nc1c([N+](=O)[O-])cc(C(F)(F)F)cc1[N+](=O)[O-]",
    "assigned-label": "F"
  },
  {
    "compound": "COc1ccc(C2=Nn3c(nc4sc(-c5ccccc5)cc4c3=O)SC2)cc1",
    "assigned-label": "F"
  },
  {
    "compound": "CCOC(=O)N(CC)c1c(C(F)(F)F)cc(-c2ccccc2)[nH]c1=O",
    "assigned-label": "F"
  },
  {
    "compound": "O=S(=O)(O)c1cc(/N=N/c2c(O)ccc3ccccc23)ccc1/C=C/c1ccc(/N=N/c2c(O)ccc3ccccc23)cc1S(=O)(=O)O",
    "assigned-label": "F"
  },
  {
    "compound": "Cc1cc(=O)cc2sc3c(C)cccc3nc1-2",
    "assigned-label": "F"
  },
  {
    "compound": "COc1cccc(NC(=O)CC(=O)NNCC(=O)Nc2nnc(-c3ccc(N(CCC#N)S(=O)(=O)c4ccccc4)cc3)s2)c1",
    "assigned-label": "F"
  },
  {
    "compound": "NNC(=O)C(O)C(O)C(=O)NN (stereo unspecified)",
    "assigned-label": "F"
  },
  {
    "compound": "CCOC(=O)C(C)N1C(=O)c2ccccc2S1(=O)=O (stereo unspecified)",
    "assigned-label": "F"
  },
  {
    "compound": "COc1cc(C2C3C=CC=C4CC=CC(=C43)C3CCC(=O)N32)cc(OC)c1OC (stereo unspecified)",
    "assigned-label": "F"
  },
  {
    "compound": "CC1=NN(C(=O)c2ccc([N+](=O)[O-])cc2)C(=O)C1/N=N/c1ccccc1C(=O)O (stereo unspecified)",
    "assigned-label": "F"
  },
  {
    "compound": "N#C/N=C1/c2ccccc2/C(=N/C#N)c2cc(CO)ccc21",
    "assigned-label": "F"
  },
  {
    "compound": "O=C(O)CCc1nc(-c2ccccc2-n2cccc2)no1",
    "assigned-label": "F"
  },
  {
    "compound": "CC(=O)OC(C)c1cc2c(s1)C(=O)c1scc(C(C)OC(C)=O)c1C2=O (stereo unspecified)",
    "assigned-label": "T"
  },
  {
    "compound": "Cc1ccc(S(=O)(=O)N2CCN(C=S)CC2)cc1",
    "assigned-label": "F"
  },
  {
    "compound": "Cn1nc(/C=C\\C(=O)N2CC(CCl)c3c2cc(N)c2ccccc32)cc1/C=C/C(=O)N1CC(CCl)c2c1cc(N)c1ccccc21 (stereo unspecified)",
    "assigned-label": "T"
  },
  {
    "compound": "Cc1cc(Cl)nc(Nc2nc3ccccc3[nH]2)n1",
    "assigned-label": "F"
  }
]

* * *

In this section, each of the molecules is paired with its reported GI50.
- Test system: TK-10
- method-notes: NCI tumour cell line growth inhibition, 48 h
The source made the active and inactive calls. No stated cut-off is given here; in the data, active = GI50 up to about 1.1 µM and inactive = higher.

[
  {
    "molecule": "CCCCC(C(=O)C(=O)Nc1ccccc1CC)C(=O)C(C)C (configuration not stated)",
    "GI50": "> 100 µM (inactive)"
  },
  {
    "molecule": "CC(C)=NNc1ncnc2[nH]cnc12",
    "GI50": "4.9 µM (inactive)"
  },
  {
    "molecule": "Oc1cccc2ccc(Br)nc12",
    "GI50": "> 100 µM (inactive)"
  },
  {
    "molecule": "O=C1Nc2ccc(Br)cc2/C1=C/C(=O)c1ccccc1",
    "GI50": "1.82 µM (inactive)"
  },
  {
    "molecule": "CCCCCC/C=C1\\CCC(CN2CCOCC2)C1=O (configuration not stated)",
    "GI50": "13.4 µM (inactive)"
  },
  {
    "molecule": "COc1ccc(/C(Cl)=C(\\C=O)c2ccc([N+](=O)[O-])cc2)cc1",
    "GI50": "30.1 µM (inactive)"
  },
  {
    "molecule": "O=C(O)C1CC(C2CCCCN2)CN2CCCCC12 (configuration not stated)",
    "GI50": "> 100 µM (inactive)"
  },
  {
    "molecule": "CCO[C@H]1O[C@@H]2OC3(C)CCC4[C@H](C)CCC([C@H]1C)[C@]42OO3 (some centres not stated)",
    "GI50": "> 95.5 µM (inactive)"
  },
  {
    "molecule": "CN1C(=O)C2C=CC1C1CCC2N(C)C1=O (configuration not stated)",
    "GI50": "> 100 µM (inactive)"
  },
  {
    "molecule": "O=C(O)C1CCCN1Cc1ccc2c(c1)OCO2 (configuration not stated)",
    "GI50": "> 100 µM (inactive)"
  },
  {
    "molecule": "COc1cc(OC)nc(NC(=O)NS(=O)(=O)c2cccc3ncn(C)c(=O)c23)n1",
    "GI50": "> 100 µM (inactive)"
  },
  {
    "molecule": "O=C1CS(=O)(=O)C(c2cccc(Oc3ccccc3)c2)N1c1ccc(Cl)cc1 (configuration not stated)",
    "GI50": "22.6 µM (inactive)"
  }
]
